Task for the reader: assign each of the following compounds its reported pEC50.
# System: Plasmodium falciparum
# protocol_summary: Antiplasmodial activity against asexual blood stage Plasmodium falciparum 3D7
# Format: functional, organism-based
Answers are plain numbers, as −log10 of the molar value.

# annotated cases, reported pEC50 shown
[[record]]
smiles_repr = "CN1CCC(c2cc(-c3ccc(F)cc3)c(-c3ccncc3)[nH]2)CC1"
system_under_test = "Plasmodium falciparum"
endpoint_label = "pEC50"
value_reported = 6.82

[[record]]
smiles_repr = "O=C(c1nccs1)N1CC[C@@H](Nc2nccc(-n3cc(C4CC4)nc3-c3cccc(Cl)c3)n2)C1"
system_under_test = "Plasmodium falciparum"
endpoint_label = "pEC50"
value_reported = 5.48


Input line: Need pEC50, item O=C(c1nccs1)N1CC[C@@H](Nc2nccc(-n3cc(C4CC4)nc3-c3ccccc3)n2)C1
Output line: 5.12

* * *

# System: Plasmodium berghei
# protocol_summary: Antiplasmodial activity against luciferase expressing Plasmodium berghei hepatic stage sporozoites infected in HepG2 cells assessed as decrease in parasite infection incubated for 16 hrs followed by replacement with compound free medium measured after 48 hrs post infection by IVIS spectrum in vivo imaging analysis
# Assay type: functional, organism-based
endpoint_label: pEC50
Numbers only, as −log10 of the molar value.

// known answers, use as guide
[[record]]
smiles_repr = "O=C(c1nccs1)N1CC[C@@H](Nc2nccc(-n3cc(C4CC4)nc3-c3ccccc3)n2)C1"
system_under_test = "Plasmodium berghei"
value_reported = 4.70

[[record]]
smiles_repr = "O=C(c1nccs1)N1CC[C@@H](Nc2nccc(-n3cc(C4CC4)nc3-c3cccc(Cl)c3)n2)C1"
system_under_test = "Plasmodium berghei"
value_reported = 5.24


// moving on: another record for pEC50
Input line: What pEC50 value was documented for this compound, CN1CCC(c2cc(-c3ccc(F)cc3)c(-c3ccncc3)[nH]2)CC1 ?
Output line: 6.52

* * *

# protocol_summary: Metabolic stability in mouse liver microsomes assessed as half life incubated for 60 mins in the presence of NADPH by LC-MS/MS analysis
# Format: ADME, Microsome
endpoint_label: half-life

[[record]]
smiles_repr = "Cc1cn(-c2ccnc(N[C@@H]3CCN(C(=O)c4nccs4)C3)n2)c(-c2ccccc2)n1"
endpoint_label = "half-life"
value_reported = "< 2 min"

[[record]]
smiles_repr = "O=C(c1nccs1)N1CC[C@@H](Nc2nccc(-n3cc(C4CC4)nc3-c3cccc(Cl)c3)n2)C1"
endpoint_label = "half-life"
value_reported = "< 2 min"


Next up:
Input line: Which half-life is listed for O=C(c1nccs1)N1CC[C@@H](Nc2nccc(-n3cc(C4CC4)nc3-c3ccccc3)n2)C1 ?
Output line: < 2 min

* * *

# protocol_summary: Kinetic aqueous solubility of the compound at pH 7.4 measured after 1 hr by UV/LC-MS/MS analysis
# Assay type: physicochemical
# condition_description: buffer, read-out: Kinetic_solubility
endpoint_label: solubility kinetic at 1 h (µM)
Numbers only, in µM.

[[record]]
smiles_repr = "Cc1cn(-c2ccnc(N[C@@H]3CCN(C(=O)c4nccs4)C3)n2)c(-c2ccccc2)n1"
value_reported = 200


I have 2 compounds here; please give me solubility kinetic at 1 h for each one.
1. O=C(c1nccs1)N1CC[C@@H](Nc2nccc(-n3cc(C4CC4)nc3-c3ccccc3)n2)C1
2. O=C(c1nccs1)N1CC[C@@H](Nc2nccc(-n3cc(C4CC4)nc3-c3cccc(Cl)c3)n2)C1

Output line:
[92, 28]
